Target: UniProt:P21589
Sequence (P21589 whole entry): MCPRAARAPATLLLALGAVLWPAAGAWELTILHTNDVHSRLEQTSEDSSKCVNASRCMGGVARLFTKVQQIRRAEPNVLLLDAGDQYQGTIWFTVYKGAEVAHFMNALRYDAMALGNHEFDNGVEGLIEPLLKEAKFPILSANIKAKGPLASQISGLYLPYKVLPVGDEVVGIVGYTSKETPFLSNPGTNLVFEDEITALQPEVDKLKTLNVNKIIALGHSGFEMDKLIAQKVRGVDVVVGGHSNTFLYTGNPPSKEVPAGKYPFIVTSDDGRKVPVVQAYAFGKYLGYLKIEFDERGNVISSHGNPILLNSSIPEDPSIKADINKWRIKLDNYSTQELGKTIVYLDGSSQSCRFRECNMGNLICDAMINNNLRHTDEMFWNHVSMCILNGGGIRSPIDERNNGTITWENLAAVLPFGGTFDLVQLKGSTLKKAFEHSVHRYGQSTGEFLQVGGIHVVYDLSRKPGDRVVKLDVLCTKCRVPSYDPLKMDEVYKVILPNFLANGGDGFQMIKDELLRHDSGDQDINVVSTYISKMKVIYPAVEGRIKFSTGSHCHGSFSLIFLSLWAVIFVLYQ
Assay: Inhibition of CD73 in human plasma incubated for 15 mins in presence of 15N5-AMP by LC/MS analysis
Assay type: cell-free
Quantity measured: IC50

The examples below pair each entry with its known result.
> print(dat)
                           molecular.string  meas.value
1  C#C[C@@]1(O)[C@@H](COC(Cc2ccc(-c3ccc[nH]c3=O)cc2)(C(=O)O)C(=O)O)O[C@@H](n2cnc3c(N)nc(Cl)nc32)[C@@H]1O     0.38 nM
2  C#C[C@@]1(O)[C@@H](COC(Cc2ccccc2)(C(=O)O)C(=O)O)O[C@@H](n2cnc3c(NCCO)nc(Cl)nc32)[C@@H]1O      7.2 nM

Could you now consider this next compound?
Lookup: IC50 / UniProt:P21589 / C#C[C@@]1(O)[C@@H](COC(Cc2ccccc2)(C(=O)O)C(=O)O)O[C@@H](n2cnc3c(-c4cccs4)nc(Cl)nc32)[C@@H]1O
136 nM

* * *

Molecular target: 5'-nucleotidase (Mus musculus, UniProt Q61503)
Sequence (Q61503 whole entry): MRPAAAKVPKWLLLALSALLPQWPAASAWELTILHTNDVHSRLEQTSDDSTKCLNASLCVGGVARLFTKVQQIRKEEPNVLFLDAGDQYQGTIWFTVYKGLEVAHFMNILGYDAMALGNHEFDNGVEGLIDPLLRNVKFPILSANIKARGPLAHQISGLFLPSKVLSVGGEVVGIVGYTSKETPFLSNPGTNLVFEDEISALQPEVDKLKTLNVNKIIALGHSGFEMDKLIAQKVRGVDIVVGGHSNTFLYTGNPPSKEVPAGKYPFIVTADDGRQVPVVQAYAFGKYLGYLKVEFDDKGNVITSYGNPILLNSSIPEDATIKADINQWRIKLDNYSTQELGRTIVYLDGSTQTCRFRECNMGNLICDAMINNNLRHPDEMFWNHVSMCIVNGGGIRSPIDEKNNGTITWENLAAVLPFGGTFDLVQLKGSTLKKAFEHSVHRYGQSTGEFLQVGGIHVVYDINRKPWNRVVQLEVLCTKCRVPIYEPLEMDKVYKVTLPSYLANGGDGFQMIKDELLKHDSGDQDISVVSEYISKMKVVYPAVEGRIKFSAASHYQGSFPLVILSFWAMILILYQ
Experiment: Inhibition of C-terminal 6His-tagged recombinant mouse CD73 (29 to 549 residues) expressed in CHO cells incubated for 1 hr by malachite green assay
Type: cell-based
Quantity measured: IC50
Please report the result as a number followed by the unit.

> print(dat)
                           molecular.string  quantity.measured  meas.value
1  C#C[C@@]1(O)[C@@H](COC(Cc2ccccc2)(C(=O)O)C(=O)O)O[C@@H](n2cnc3c(N)nc(Cl)nc32)[C@@H]1O               IC50      7.3 nM

Shift focus to the following entry.
Hello, I am looking for reported IC50 with 5'-nucleotidase (Mus musculus, UniProt Q61503) for C#C[C@@]1(O)[C@@H](COC(Cc2ccc(N3CCCNC3=O)cc2)(C(=O)O)C(=O)O)O[C@@H](n2cnc3c(N)nc(Cl)nc32)[C@@H]1O . Could you help?
1.3 nM

* * *

Assay: Clearance in CD rat at 1 mg/kg, iv measured for 24 hrs by LC-MS/MS analysis
Format: ADME, organism-based
Conditions: in vivo
Classify as follows. Reported clearance greater than or equal to 8 mL/min/kg: met. Reported clearance below: not met.

> print(dat)
                           molecular.string    class
1  C#C[C@@]1(O)[C@@H](COC(Cc2ccccc2)(C(=O)O)C(=O)O)O[C@@H](n2cnc3c(NCc4ccccc4)nc(Cl)nc32)[C@@H]1O  not met

Check this compound for clearance at or above 8 mL/min/kg: C#C[C@@]1(O)[C@@H](COC(Cc2ccc(-c3ccccc3)cc2)(C(=O)O)C(=O)O)O[C@@H](n2cnc3c(N)nc(Cl)nc32)[C@@H]1O
met

Could you verify whether the entry C#C[C@@]1(O)[C@@H](COC(Cc2ccccc2)(C(=O)O)C(=O)O)O[C@@H](n2cnc3c(NC(C)C)cc(Cl)nc32)[C@@H]1O shows clearance of no less than 8 mL/min/kg?
not met

Exam item: decide whether the reported clearance for C#C[C@@]1(O)[C@@H](COC(Cc2ccccc2)(C(=O)O)C(=O)O)O[C@@H](n2cnc3c(N[C@H](C)c4ccccc4)nc(Cl)nc32)[C@@H]1O is at least 8 mL/min/kg.
not met

// inclusive: clearance at least 8 mL/min/kg? input: C#C[C@@]1(O)[C@@H](COC(Cc2ccc(-c3ccccc3C(=O)O)cc2)(C(=O)O)C(=O)O)O[C@@H](n2cnc3c(N)nc(Cl)nc32)[C@@H]1O
not met

Would you say CC#C[C@@]1(O)[C@@H](COC(Cc2ccccc2)(C(=O)O)C(=O)O)O[C@@H](n2cnc3c(N)nc(Cl)nc32)[C@@H]1O shows clearance at minimum 8 mL/min/kg?
met

Does the reported clearance for C#C[C@@]1(O)[C@@H](COC(Cc2ccccc2)(C(=O)O)C(=O)O)O[C@@H](n2cnc3c(NCCO)nc(Cl)nc32)[C@@H]1O fall at or above the 8 mL/min/kg mark?
not met

Origin of values: ChEMBL document CHEMBL5316268
